Each entry below carries its reported IC50.
Experimental Target: Acetylcholinesterase (Homo sapiens, UniProt P22303)
Sequence (P22303 whole entry): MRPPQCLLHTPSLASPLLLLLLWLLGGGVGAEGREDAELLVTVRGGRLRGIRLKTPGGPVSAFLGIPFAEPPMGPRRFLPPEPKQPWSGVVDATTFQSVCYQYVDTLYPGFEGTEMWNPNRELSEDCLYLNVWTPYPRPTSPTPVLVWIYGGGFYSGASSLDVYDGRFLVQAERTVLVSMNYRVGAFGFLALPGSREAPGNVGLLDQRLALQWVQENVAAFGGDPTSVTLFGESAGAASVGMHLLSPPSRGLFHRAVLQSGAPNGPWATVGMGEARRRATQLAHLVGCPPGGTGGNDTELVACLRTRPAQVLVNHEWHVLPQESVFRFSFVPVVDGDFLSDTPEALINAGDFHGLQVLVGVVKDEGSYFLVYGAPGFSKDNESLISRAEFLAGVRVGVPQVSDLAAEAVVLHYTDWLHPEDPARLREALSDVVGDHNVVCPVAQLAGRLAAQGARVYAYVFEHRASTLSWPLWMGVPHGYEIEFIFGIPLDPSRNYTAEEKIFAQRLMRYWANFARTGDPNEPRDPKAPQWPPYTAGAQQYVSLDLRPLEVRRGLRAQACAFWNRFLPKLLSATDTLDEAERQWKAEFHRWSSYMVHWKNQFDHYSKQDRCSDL
Protocol: Inhibition of human recombinant AChE preincubated 20 mins before substrate addition by Ellman method
Result Type: IC50

{"Compound Structure String": "CCN(CCCCCCNC1=CC(=O)C(NCCCCCCN(CC)[C@@H](C)c2ccccc2OC)=CC1=O)[C@H](C)c1ccccc1OC", "Result Type": "IC50", "Result": "360 pM"}
{"Compound Structure String": "CCN(CCCCCCNC1=CC(=O)C(NCCCCCCN(CC)[C@H](C)c2ccccc2OC)=CC1=O)[C@H](C)c1ccccc1OC", "Result Type": "IC50", "Result": "500 pM"}
{"Compound Structure String": "CCN(CCCCCCNC1=CC(=O)C(NCCCCCCN(CC)[C@@H](C)c2ccccc2OC)=CC1=O)[C@@H](C)c1ccccc1OC", "Result Type": "IC50", "Result": "4030 pM"}

====

Experimental Target: Cholinesterases; ACHE & BCHE (Homo sapiens) (UniProt P06276+P22303)
Sequence (P06276 whole entry, looked up, one chain of several): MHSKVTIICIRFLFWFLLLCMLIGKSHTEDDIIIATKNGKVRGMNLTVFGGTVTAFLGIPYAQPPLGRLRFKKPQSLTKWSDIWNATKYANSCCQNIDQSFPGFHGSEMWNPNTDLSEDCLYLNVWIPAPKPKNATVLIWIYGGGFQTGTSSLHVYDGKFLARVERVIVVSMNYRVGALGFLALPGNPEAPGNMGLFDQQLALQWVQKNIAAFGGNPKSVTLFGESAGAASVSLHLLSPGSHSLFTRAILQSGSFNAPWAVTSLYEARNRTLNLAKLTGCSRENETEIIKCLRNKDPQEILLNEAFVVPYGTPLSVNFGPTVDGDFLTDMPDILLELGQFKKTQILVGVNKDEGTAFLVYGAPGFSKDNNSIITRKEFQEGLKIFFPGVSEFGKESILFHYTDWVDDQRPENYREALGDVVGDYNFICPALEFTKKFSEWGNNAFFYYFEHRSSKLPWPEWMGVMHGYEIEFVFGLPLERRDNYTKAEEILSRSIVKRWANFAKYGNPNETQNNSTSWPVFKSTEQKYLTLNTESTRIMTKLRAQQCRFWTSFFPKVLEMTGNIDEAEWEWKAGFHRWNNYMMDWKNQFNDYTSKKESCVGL
Protocol: Selectivity ratio of IC50 for human recombinant BchE to IC50 for human recombinant AChE
Each entry below carries its reported Ratio IC50.

{"Compound Structure String": "CCN(CCCCCCNC1=CC(=O)C(NCCCCCCN(CC)Cc2ccccc2OC)=CC1=O)Cc1ccccc1OC", "Ratio IC50": 929}
{"Compound Structure String": "CCN(CCCCCCNC1=CC(=O)C(NCCCCCCN(CC)[C@@H](C)c2ccccc2OC)=CC1=O)[C@H](C)c1ccccc1OC", "Ratio IC50": 2730}
{"Compound Structure String": "CCN(CCCCCCNC1=CC(=O)C(NCCCCCCN(CC)[C@@H](C)c2ccccc2OC)=CC1=O)[C@@H](C)c1ccccc1OC", "Ratio IC50": 238}
{"Compound Structure String": "CCN(CCCCCCNC1=CC(=O)C(NCCCCCCN(CC)[C@H](C)c2ccccc2OC)=CC1=O)[C@H](C)c1ccccc1OC", "Ratio IC50": 2960}

====

Experimental Target: Acetylcholinesterase (Homo sapiens, UniProt P22303)
Protocol: Inhibition of human AChE-induced amyloid beta (1-40) aggregation by thioflavin T fluorescence-based assay
pIC50: −log10 of the molar value.
Result Type: pIC50

{"Compound Structure String": "CCN(CCCCCCNC1=CC(=O)C(NCCCCCCN(CC)[C@H](C)c2ccccc2OC)=CC1=O)[C@H](C)c1ccccc1OC", "Experimental Target": "Acetylcholinesterase (Homo sapiens, UniProt P22303)", "Numeric Readout": 5.03}
{"Compound Structure String": "CCN(CCCCCCNC1=CC(=O)C(NCCCCCCN(CC)[C@@H](C)c2ccccc2OC)=CC1=O)[C@@H](C)c1ccccc1OC", "Experimental Target": "Acetylcholinesterase (Homo sapiens, UniProt P22303)", "Numeric Readout": 5.10}
{"Compound Structure String": "CCN(CCCCCCNC1=CC(=O)C(NCCCCCCN(CC)[C@@H](C)c2ccccc2OC)=CC1=O)[C@H](C)c1ccccc1OC", "Experimental Target": "Acetylcholinesterase (Homo sapiens, UniProt P22303)", "Numeric Readout": 4.96}

// provenance: ChEMBL document CHEMBL1152360
